Let's look at some binders and their measured pEC50.
Molecular target: T1, TNFRSF17 (recombinant human protein) (human, UniProt Q02223 1-54)
T1 construct: Recombinant human protein immobilized at 5 ug/mL for ELISA
T1 sequence (looked up): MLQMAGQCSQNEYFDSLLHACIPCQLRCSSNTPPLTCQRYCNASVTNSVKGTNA
Experiment: ELISA, recombinant human protein coated, nanobody-Fc titrated, anti-human IgG HRP
Experimental: Recombinant human protein was diluted in PBS to a final concentration of 5 μg/mL and was immobilized on 96-well flat bottom MaxiSorp plates (Thermo Fisher Scientific) and placed at 4° C. overnight. Plates were washed three times with 225 μL ELISA wash buffer (PBS with 0.05% Tween 20) and 200 μL ELISA blocking buffer (PBS with 1% Casein) was added to the well. […] 50 μL 1 M sulfuric acid was added to the wells and absorbance at 450 nm was measured in a Synergy HTX Multi-Mode Microplate Reader (BioTek).
pEC50: −log10 of the molar value.
Quantity: pEC50

* TNFRSF17_Nb2.23 (Fc fusion, Nanobody expressed as an Fc fusion protein (fused with human IgG1) in Expi293 cells; not shown: human IgG1 Fc; nanobodies expressed as Fc fusion from vector pCER243) QVQLQESGGGLVQAGGSLRLSCAASGYISRYDYMGWYRQAPGKERELVAAINSGASTYYADSVKGRFTISRDNAKNTVYLQMNSLKPEDTAVYYCAVRSWGLDDYAYWGQGTQVTVSS | 8.12
* TNFRSF17_Nb2.18 (Fc fusion, Nanobody expressed as an Fc fusion protein (fused with human IgG1) in Expi293 cells; not shown: human IgG1 Fc; nanobodies expressed as Fc fusion from vector pCER243) QVQLQESGGGLVQAGGSLRLSCAASGNIFRGWYMGWYRQAPGKEREFVATIASGGSTYYADSVKGRFTISRDNAKNTVYLQMNSLKPEDTAVYYCAVWDWEPGDYAYWGQGTQVTVSS | 8.55
* TNFRSF17_Nb2.21 (Fc fusion, Nanobody expressed as an Fc fusion protein (fused with human IgG1) in Expi293 cells; not shown: human IgG1 Fc; nanobodies expressed as Fc fusion from vector pCER243) QVQLQESGGGLVQAGGSLRLSCAASGTIFQYDYMGWYRQAPGKEREFVAAIAYGGNTNYADSVKGRFTISRDNAKNTVYLQMNSLKPEDTAVYYCAAWSWRRSRAYWGQGTQVTVSS | 8.32
* TNFRSF17_Nb2.19 (Fc fusion, Nanobody expressed as an Fc fusion protein (fused with human IgG1) in Expi293 cells; not shown: human IgG1 Fc; nanobodies expressed as Fc fusion from vector pCER243) QVQLQESGGGLVQAGGSLRLSCAASGTISHPTYMGWYRQAPGKEREFVAGISDGTNTYYADSVKGRFTISRDNAKNTVYLQMNSLKPEDTAVYYCAAITSWDYGYGYWGQGTQVTVSS | 8.55
* TNFRSF17_Nb2.20 (Fc fusion, Nanobody expressed as an Fc fusion protein (fused with human IgG1) in Expi293 cells; not shown: human IgG1 Fc; nanobodies expressed as Fc fusion from vector pCER243) QVQLQESGGGLVQAGGSLRLSCAASGTIFSDYMGWYRQAPGKEREFVATIAVGSITYYADSVKGRFTISRDNAKNTVYLQMNSLKPEDTAVYYCAVWDASWADYAYWGQGTQVTVSS | 8.99
